Examples of compounds with documented Dmax follow.
Biological target: BCL6 (Homo sapiens)
Construct: endogenous in cells; host or cells: T47D breast cancer epithelial cells
Test: Immunofluorescence protocol for high content imaging of BCL6 (degradation) in T47D cells, 3 days compound treatment
Assay type: cell-based
Settings: T47D, read-out: Mean Dmax (%)** category

Compound	Dmax
CNC(=O)COc1cc2cc(Nc3nc(N4CCC(O[C@H]5C[C@H](N6CCN(c7ccc8c(c7F)C(=O)N(C7CCC(=O)NC7=O)C8=O)CC6)C5)CC4)ncc3Cl)ccc2n(C(C)C)c1=O (stereo partly drawn) [Compound 413]	< 50%
CNC(=O)COc1cc2cc(Nc3nc(N4CCC(O[C@H]5C[C@H](N6CC7(CCN(c8ccc9c(c8)CN(C8CCC(=O)NC8=O)C9=O)CC7)C6)C5)CC4)ncc3Cl)ccc2n(C(C)C)c1=O (stereo partly drawn) [Compound 369]	≥ 70%
CNC(=O)COc1cc2cc(Nc3nc(N4CCC(O[C@H]5C[C@H](N6CCN(c7cc(F)c(F)c8c7C(=O)N(C7CCC(=O)NC7=O)C8)CC6)C5)CC4)ncc3Cl)ccc2n(C(C)C)c1=O (stereo partly drawn) [Compound 274]	< 50%

* * *

Biological target: BCL6 (Homo sapiens, UniProt P41182)
Construct: endogenous in cells; host or cells: T47D breast cancer epithelial cells
Assay: Immunofluorescence protocol for high content imaging of BCL6 (degradation) in T47D cells, 3 days compound treatment
Assay type: cell-based
Conditions: T47D, read-out: Mean Dmax (%)** category
The molecules listed here are annotated with their Dmax.
Readout name: Dmax

Molecule	Target desc	Readout name	Result
CNC(=O)COc1cc2c(F)c(Nc3nc(N4CCC(CN5CCC6(CC5)CN(c5ccc7c(c5)C(=O)N(C5CCC(=O)NC5=O)C7=O)C6)CC4)ncc3Cl)ccc2n(C(C)C)c1=O (centres unmarked) [Compound 347]	BCL6 (Homo sapiens, UniProt P41182)	Dmax	≥ 70%
CC(C)n1c(=O)c(OCC(=O)O)cc2cc(Nc3nc(N4CCC(O[C@H]5C[C@H](N6CCC(c7ccc8c(c7F)CN(C7CCC(=O)NC7=O)C8=O)CC6)C5)CC4)ncc3Cl)ccc21 (some centres unmarked) [Compound 264]	BCL6 (Homo sapiens, UniProt P41182)	Dmax	≥ 70%
CNC(=O)COc1cc2cc(Nc3nc(N4CCC(OC5CN([C@H]6CC[C@H](c7ccc8c(c7)C(=O)N(C7CCC(=O)NC7=O)C8=O)CC6)C5)CC4)ncc3Cl)ccc2n(C(C)C)c1=O (some centres unmarked) [Compound 341]	BCL6 (Homo sapiens, UniProt P41182)	Dmax	50 to 70%
CNC(=O)COc1cc2cc(Nc3nc(N4CCC(O[C@H]5C[C@H](N6CCC7(c8ccc9c(c8F)CN(C8CCC(=O)NC8=O)C9=O)CC7C6)C5)CC4)ncc3Cl)ccc2n(C(C)C)c1=O (some centres unmarked) [Compound 283]	BCL6 (Homo sapiens, UniProt P41182)	Dmax	≥ 70%
CNC(=O)COc1cc2cc(Nc3cc(N4CCC(O[C@H]5C[C@H](N6CCC(c7ccc8c(c7)C(=O)N(C7CCC(=O)NC7=O)C8=O)CC6)C5)CC4)ncc3Cl)ccc2n(C(C)C)c1=O (some centres unmarked) [Compound 243]	BCL6 (Homo sapiens, UniProt P41182)	Dmax	< 50%

* * *

Target: BCL6 (Homo sapiens, UniProt P41182)
Construct: endogenous in cells; host or cells: T47D breast cancer epithelial cells
Experiment: Immunofluorescence protocol for high content imaging of BCL6 (degradation) in T47D cells, 3 days compound treatment
Assay type: cell-based
Settings: read-out: Mean DC50 (nM)* category

Molecule	DC50
CNC(=O)COc1cc2c(F)c(Nc3cc(N4CCC(CN5CCC6(CN(c7ccc8c(c7F)CN(C7CCC(=O)NC7=O)C8=O)C6)C(F)(F)C5)CC4)ncc3Cl)ccc2n(C(C)C)c1=O (stereo not drawn)	< 10 nM
CNC(=O)COc1cc2cc(Nc3nc(N4CCC(O[C@H]5C[C@H](N6CC[C@@H](c7ccc8c(c7F)CN([C@H]7CCC(=O)NC7=O)C8=O)C[C@H]6C)C5)CC4)ncc3Cl)ccc2n(C(C)C)c1=O	< 10 nM
CNC(=O)COc1cc2cc(Nc3nc(N4CCN(CC5CCC6(CC5)CN(c5cc7c(cc5F)C(=O)N(C5CCC(=O)NC5=O)C7)C6)CC4)ncc3Cl)ccc2n(C(C)C)c1=O (stereo not drawn)	< 10 nM

* * *

Dmax listing for selected compounds.
Molecular target: BCL6 (Homo sapiens)
Construct: endogenous in cells; host or cells: T47D breast cancer epithelial cells
Assay: Immunofluorescence protocol for high content imaging of BCL6 (degradation) in T47D cells, 3 days compound treatment
Format: cell-based
Conditions: T47D, read-out: Mean Dmax (%)** category
Readout name: Dmax

Compound	Target desc	Readout name	Result
CNC(=O)COc1cc2cc(Nc3nc(N4CCC(CN5[C@@H](C)CC6(C[C@@H]5C)CN(c5ccc7c(c5)C(=O)N(C5CCC(=O)NC5=O)C7=O)C6)CC4)ncc3Cl)ccc2n(C(C)C)c1=O (stereo partly shown)	BCL6 (Homo sapiens)	Dmax	50 to 70%
CNC(=O)COc1cc2cc(Nc3nc(N4CCC(O[C@H]5C[C@H](N6CCC7(CN(c8ccc9c(c8F)CN(C8CCC(=O)NC8=O)C9=O)C7)C6)C5)CC4)ncc3Cl)ccc2n(C(C)C)c1=O (stereo partly shown)	BCL6 (Homo sapiens)	Dmax	≥ 70%
CNC(=O)COc1cc2c(F)c(Nc3cc(N4CCC(CN5CCC6(CN(c7ccc8c(c7F)CN(C7CCC(=O)NC7=O)C8=O)C6)C(F)(F)C5)CC4)ncc3Cl)ccc2n(C(C)C)c1=O (stereo not shown)	BCL6 (Homo sapiens)	Dmax	50 to 70%
CNC(=O)COc1cc2c(F)c(Nc3nc(N4CCC(F)(CN5CCC6(CC5)CN(c5ccc7c(c5)CN(C5CCC(=O)NC5=O)C7=O)C6)CC4)ncc3Cl)ccc2n(C(C)C)c1=O (stereo not shown)	BCL6 (Homo sapiens)	Dmax	≥ 70%
CNC(=O)COc1cc2cc(Nc3nc(N4CCC(OC5CCC6(CC5)CN(c5ccc(F)c7c5CN(C5CCC(=O)NC5=O)C7=O)C6)CC4)ncc3Cl)ccc2n(C(C)C)c1=O (stereo not shown)	BCL6 (Homo sapiens)	Dmax	50 to 70%
CNC(=O)COc1cc2cc(Nc3nc(N4CCC(O[C@H]5C[C@H](N6CC[C@@H](c7ccc8c(c7F)CN([C@H]7CCC(=O)NC7=O)C8=O)C[C@H]6C)C5)CC4)ncc3Cl)ccc2n(C(C)C)c1=O	BCL6 (Homo sapiens)	Dmax	≥ 70%
CC[C@@H]1CN([C@H]2C[C@H](OC3CCN(c4ncc(Cl)c(Nc5ccc6c(c5)cc(OCC(=O)NC)c(=O)n6C(C)C)n4)CC3)C2)CCN1c1ccc2c(c1C)C(=O)N(C1CCC(=O)NC1=O)C2=O (stereo partly shown)	BCL6 (Homo sapiens)	Dmax	≥ 70%
CNC(=O)COc1cc2cc(Nc3nc(N4CCC(O[C@H]5C[C@H](N6CC7(CCN(c8ccc9c(c8)C(=O)N(C8CCC(=O)NC8=O)C9)CC7)C6)C5)CC4)ncc3Cl)ccc2n(C(C)C)c1=O (stereo partly shown)	BCL6 (Homo sapiens)	Dmax	≥ 70%
CNC(=O)COc1cc2c(F)c(Nc3nc(N4CCC(F)(CN5CCC6(CC5)CN(c5ccc7c(c5F)CN(C5CCC(=O)NC5=O)C7=O)C6)CC4)ncc3Cl)ccc2n(C(C)C)c1=O (stereo not shown)	BCL6 (Homo sapiens)	Dmax	≥ 70%
CNC(=O)COc1cc2cc(Nc3nc(N4CCC(O[C@H]5C[C@H](N6CCN(c7cc8c(cc7Cl)C(=O)N([C@H]7CCC(=O)NC7=O)C8)[C@H](C)C6)C5)CC4)ncc3Cl)ccc2n(C(C)C)c1=O	BCL6 (Homo sapiens)	Dmax	≥ 70%

* * *

Target: BCL6 (Homo sapiens)
Construct: endogenous in cells; host or cells: T47D breast cancer epithelial cells
Test: Immunofluorescence protocol for high content imaging of BCL6 (degradation) in T47D cells, 3 days compound treatment
Type: cell-based
Details: read-out: Mean DC50 (nM)* category
Measured DC50, listed per entry for reference.

Compound	Target desc	DC50
CNC(=O)COc1cc2cc(Nc3nc(N4CCC(O[C@H]5C[C@H](N6CCC7(CCCN(c8ccc9c(c8)CN(C8CCC(=O)NC8=O)C9=O)C7)C6)C5)CC4)ncc3Cl)ccc2n(C(C)C)c1=O (stereo partly drawn)	BCL6 (Homo sapiens)	< 10 nM
CNC(=O)COc1cc2cc(Nc3nc(N4CCN(CC5CCC6(CC5)CN(c5cccc7c5CN(C5CCC(=O)NC5=O)C7=O)C6)CC4)ncc3Cl)ccc2n(C(C)C)c1=O (stereo not drawn)	BCL6 (Homo sapiens)	< 10 nM
CNC(=O)COc1cc2c(F)c(Nc3cc(N4CCC(F)(CN5CCC6(CC5)CN(c5ccc7c(c5F)CN(C5CCC(=O)NC5=O)C7=O)C6)CC4)ncc3Cl)ccc2n(C(C)C)c1=O (stereo not drawn)	BCL6 (Homo sapiens)	< 10 nM

* * *

Target: BCL6 (Homo sapiens)
Construct: endogenous in cells; host or cells: T47D breast cancer epithelial cells
Test: Immunofluorescence protocol for high content imaging of BCL6 (degradation) in T47D cells, 3 days compound treatment
Type: cell-based
Details: T47D, read-out: Mean Dmax (%)** category

Molecule	Dmax
CNC(=O)COc1cc2cc(Nc3nc(N4CCC(O[C@H]5C[C@H](N6CCC(c7cnc8c(c7)CN(C7CCC(=O)NC7=O)C8=O)CC6)C5)CC4)ncc3Cl)ccc2n(C(C)C)c1=O (stereo partly shown) [Compound 216]	50 to 70%
CNC(=O)COc1cc2cc(Nc3nc(N4CCC(O[C@H]5C[C@H](N6CC=C(c7ccc8c(c7F)CN(C7CCC(=O)NC7=O)C8=O)CC6)C5)CC4)ncc3Cl)ccc2n(C(C)C)c1=O (stereo partly shown) [Compound 426]	≥ 70%
CNC(=O)COc1cc2cc(Nc3nc(N4CCC(C(C)(C)N5CCC6(CC5)CN(c5cc(OC)cc7c5CN(C5CCC(=O)NC5=O)C7=O)C6)CC4)ncc3Cl)ccc2n(C(C)C)c1=O (stereo not shown) [Compound 328]	50 to 70%
CNC(=O)COc1cc2cc(Nc3nc(N4CCC(O[C@H]5C[C@H](N6CC7(CCN(c8ccc9c(c8F)CN(C8CCC(=O)NC8=O)C9=O)C7)C6)C5)CC4)ncc3Cl)ccc2n(C(C)C)c1=O (stereo partly shown) [Compound 400]	≥ 70%
CNC(=O)COc1cc2cc(Nc3nc(N4CCC(O[C@H]5C[C@H](N6CCC7(CC6)CN(c6ccc8c(c6)C(=O)N(C6CCC(=O)NC6=O)C8=O)C7)C5)CC4)ncc3Cl)ccc2n(C(C)C)c1=O (stereo partly shown) [Compound 357]	≥ 70%
CNC(=O)COc1cc2c(F)c(Nc3cc(N4CCC(CN5CCC6(CN(c7ccc8c(c7)CN(C7CCC(=O)NC7=O)C8=O)C6)C(F)(F)C5)CC4)ncc3Cl)ccc2n(C(C)C)c1=O (stereo not shown) [Compound 251]	≥ 70%
CNC(=O)COc1cc2cc(Nc3nc(N4CCN(CC5CCC6(CC5)CN(c5ccc(F)c7c5CN(C5CCC(=O)NC5=O)C7=O)C6)CC4)ncc3Cl)ccc2n(C(C)C)c1=O (stereo not shown) [Compound 316]	50 to 70%
CNC(=O)COc1cc2cc(Nc3nc(N4CCC(F)(CN5CCC6(CC5)CN(c5ccc7c(c5)CN(C5CCC(=O)NC5=O)C7=O)C6(C)C)CC4)ncc3Cl)ccc2n(C(C)C)c1=O (stereo not shown) [Compound 382]	≥ 70%
CNC(=O)COc1cc2cc(Nc3nc(N4CCC(O[C@H]5C[C@H](N6CCN(c7cc(C)c8c(c7)C(=O)N(C7CCC(=O)NC7=O)C8=O)CC6)C5)CC4)ncc3Cl)ccc2n(C(C)C)c1=O (stereo partly shown) [Compound 378]	50 to 70%
CNC(=O)COc1cc2cc(Nc3nc(N4CCC(O[C@H]5C[C@H](N6CC=C(c7ccc8c(c7Cl)CN(C7CCC(=O)NC7=O)C8=O)CC6)C5)CC4)ncc3Cl)ccc2n(C(C)C)c1=O (stereo partly shown) [Compound 429]	≥ 70%
